- experimentalSystem: UniProtKB Q95PM0
- assayDetails: Inhibition of Trypanosoma brucei rhodesiense rhodesain after 12 hrs by fluorescence spectroscopy-based on-bead assay
- Parameters: concentration or dose not given beside the values
- experimentalSetup: concentration not given here
Square brackets hold non-standard residues; d marks the D form. Peptide text beside a SMILES is read from it. * marks the point of attachment. Fumaroyl(GlyGlyPheOH) = O=C(/C=C/C(=O)*)NCC(=O)NCC(=O)N[C@@H](Cc1ccccc1)C(=O)O; Chg = N[C@H](C(=O)O)C1CCCCC1; Dap = NC[C@H](N)C(=O)O
Hi there, I'd appreciate the recorded inhibition for every entry that follows.
Just the number please, in %, no unit attached.

-- ask Consider the compound CC(C)C[C@H](NC(=O)[C@H](CCC(N)=O)NC(=O)/C=C/C(=O)NCC(=O)NCC(=O)N[C@@H](Cc1ccccc1)C(=O)O)C(=O)N[C@H](C(=O)N[C@H](C(N)=O)C(C)C)C(C)C (HELM PEPTIDE1{[O=C(/C=C/C(=O)[*:2])NCC(=O)NCC(=O)N[C@@H](Cc1ccccc1)C(=O)O].Q.L.V.V.[am]}$$$$V2.0) and give its recorded inhibition.
-- reply 54

-- ask Consider the compound CC[C@H](C)[C@H](NC(=O)[C@H](CC(N)=O)NC(=O)/C=C/C(=O)NCC(=O)NCC(=O)N[C@@H](Cc1ccccc1)C(=O)O)C(=O)N[C@H](C(=O)N[C@H](C(N)=O)C(C)C)C(C)C (HELM PEPTIDE1{[O=C(/C=C/C(=O)[*:2])NCC(=O)NCC(=O)N[C@@H](Cc1ccccc1)C(=O)O].N.I.V.V.[am]}$$$$V2.0) and give its recorded inhibition.
-- reply 39

-- ask Consider the compound CC(=O)NC[C@H](NC(=O)/C=C/C(=O)NCC(=O)NCC(=O)N[C@@H](Cc1ccccc1)C(=O)O)C(=O)N[C@H](C(=O)N[C@@H](CC(C)C)C(=O)N[C@H](C(N)=O)C(C)C)C1CCCCC1 ({Fumaroyl(GlyGlyPheOH)}-[Dap](Ac)[Chg]LV-NH2) and give its recorded inhibition.
-- reply 75

-- ask Consider the compound CC(C)[C@H](NC(=O)[C@@H](NC(=O)[C@H](Cc1ccccc1)NC(=O)[C@H](CC(N)=O)NC(=O)/C=C/C(=O)N[C@@H](C)C(=O)NCC(=O)N[C@@H](Cc1ccccc1)C(=O)O)C(C)C)C(N)=O (HELM PEPTIDE1{[C[C@H](NC(=O)/C=C/C(=O)[*:2])C(=O)NCC(=O)N[C@@H](Cc1ccccc1)C(=O)O].N.F.V.V.[am]}$$$$V2.0) and give its recorded inhibition.
-- reply 53

-- ask Consider the compound CC(C)C[C@H](NC(=O)[C@H](CC(N)=O)NC(=O)/C=C/C(=O)N[C@@H](C)C(=O)NCC(=O)N[C@@H](Cc1ccccc1)C(=O)O)C(=O)N[C@H](C(=O)N[C@H](C(N)=O)C(C)C)C(C)C (HELM PEPTIDE1{[C[C@H](NC(=O)/C=C/C(=O)[*:2])C(=O)NCC(=O)N[C@@H](Cc1ccccc1)C(=O)O].N.L.V.V.[am]}$$$$V2.0) and give its recorded inhibition.
-- reply 50

-- ask Consider the compound CC(=O)NC[C@H](NC(=O)/C=C/C(=O)NCC(=O)NCC(=O)N[C@@H](Cc1ccccc1)C(=O)O)C(=O)N[C@H](C(=O)N[C@@H](CC(C)C)C(=O)N[C@H](C(N)=O)C(C)C)c1ccccc1 (HELM PEPTIDE1{[O=C(/C=C/C(=O)[*:2])NCC(=O)NCC(=O)N[C@@H](Cc1ccccc1)C(=O)O].[O=C([C@H](CN[*:3])N[*:1])[*:2]].[Phg].L.V.[am]}|PEPTIDE2{[ac]}$PEPTIDE1,PEPTIDE2,2:R3-1:R2$$$V2.0) and give its recorded inhibition.
-- reply 66

---

- experimentalSystem: UniProtKB Q95PM0
- assayDetails: Inhibition of Trypanosoma brucei rhodesiense rhodesain after 12 hrs by fluorescence spectroscopy-based on-bead assay
- Parameters: concentration or dose not given beside the values
- experimentalSetup: concentration not given here
Peptide text beside a SMILES is read from it.
measurementType: inhibition (%)
Just the number please, in %, no unit attached.

-- ask Consider the molecule CC(C)[C@H](NC(=O)[C@H](C)NC(=O)[C@@H](NC(=O)[C@H](CC(N)=O)NC(=O)/C=C/C(=O)NCC(=O)NCC(=O)N[C@@H](Cc1ccccc1)C(=O)O)c1ccccc1)C(N)=O (HELM PEPTIDE1{[O=C(/C=C/C(=O)[*:2])NCC(=O)NCC(=O)N[C@@H](Cc1ccccc1)C(=O)O].N.[Phg].A.V.[am]}$$$$V2.0) and give its recorded inhibition.
-- reply 48

-- ask Consider the molecule CC(C)C[C@H](NC(=O)[C@H](Cc1ccccc1)NC(=O)/C=C/C(=O)N[C@@H](C)C(=O)NCC(=O)N[C@@H](Cc1ccccc1)C(=O)O)C(=O)N[C@@H](C)C(=O)N[C@H](C(N)=O)C(C)C (HELM PEPTIDE1{[C[C@H](NC(=O)/C=C/C(=O)[*:2])C(=O)NCC(=O)N[C@@H](Cc1ccccc1)C(=O)O].F.L.A.V.[am]}$$$$V2.0) and give its recorded inhibition.
-- reply 49

-- ask Consider the molecule CC(C)C[C@H](NC(=O)[C@H](CC(N)=O)NC(=O)/C=C/C(=O)N[C@@H](C)C(=O)NCC(=O)N[C@@H](Cc1ccccc1)C(=O)O)C(=O)N[C@@H](CC(C)C)C(=O)N[C@H](C(N)=O)C(C)C (HELM PEPTIDE1{[C[C@H](NC(=O)/C=C/C(=O)[*:2])C(=O)NCC(=O)N[C@@H](Cc1ccccc1)C(=O)O].N.L.L.V.[am]}$$$$V2.0) and give its recorded inhibition.
-- reply 59

---

- experimentalSystem: Rhodesain (Trypanosoma brucei rhodesiense) (UniProt Q95PM0)
- Sequence (Q95PM0 1-450): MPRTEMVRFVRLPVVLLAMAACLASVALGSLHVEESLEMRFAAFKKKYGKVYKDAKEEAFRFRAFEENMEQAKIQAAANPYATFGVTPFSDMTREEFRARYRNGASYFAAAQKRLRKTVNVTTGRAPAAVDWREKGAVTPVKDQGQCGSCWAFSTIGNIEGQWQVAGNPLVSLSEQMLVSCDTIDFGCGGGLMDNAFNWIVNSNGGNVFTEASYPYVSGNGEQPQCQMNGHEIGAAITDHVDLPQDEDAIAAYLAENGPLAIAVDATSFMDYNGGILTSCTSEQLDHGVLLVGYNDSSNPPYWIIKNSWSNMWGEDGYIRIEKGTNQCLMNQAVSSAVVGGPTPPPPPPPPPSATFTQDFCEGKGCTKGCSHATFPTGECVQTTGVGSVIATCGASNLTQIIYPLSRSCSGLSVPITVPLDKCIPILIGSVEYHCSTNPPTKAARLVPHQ
- assayDetails: Inhibition of Trypanosoma brucei rhodesiense rhodesain after 12 hrs by fluorescence spectroscopy-based on-bead assay
- Parameters: concentration or dose not given beside the values
- experimentalSetup: concentration not given here
Peptide text beside a SMILES is read from it.
Hi there, I'd appreciate the recorded inhibition for every entry that follows.
Just the number please, in %, no unit attached.

-- ask Consider the compound CC(C)[C@H](NC(=O)[C@H](C)NC(=O)[C@H](Cc1ccccc1)NC(=O)[C@H](CCC(N)=O)NC(=O)/C=C/C(=O)N[C@@H](C)C(=O)NCC(=O)N[C@@H](Cc1ccccc1)C(=O)O)C(N)=O (HELM PEPTIDE1{[C[C@H](NC(=O)/C=C/C(=O)[*:2])C(=O)NCC(=O)N[C@@H](Cc1ccccc1)C(=O)O].Q.F.A.V.[am]}$$$$V2.0) and give its recorded inhibition.
-- reply 30

-- ask Consider the compound CC(C)C[C@H](NC(=O)[C@H](C)NC(=O)/C=C/C(=O)NCC(=O)NCC(=O)N[C@@H](Cc1ccccc1)C(=O)O)C(=O)N[C@@H](C)C(=O)N[C@H](C(N)=O)C(C)C (HELM PEPTIDE1{[O=C(/C=C/C(=O)[*:2])NCC(=O)NCC(=O)N[C@@H](Cc1ccccc1)C(=O)O].A.L.A.V.[am]}$$$$V2.0) and give its recorded inhibition.
-- reply 40

---

Hi there, I'd appreciate the recorded inhibition for every entry that follows.
- experimentalSystem: Rhodesain (Trypanosoma brucei rhodesiense)
- assayDetails: Inhibition of Trypanosoma brucei rhodesiense rhodesain after 12 hrs by fluorescence spectroscopy-based on-bead assay
- Set-up: concentration or dose not given beside the values
- experimentalSetup: concentration not given here
Peptide text beside a SMILES is read from it.
Just the number please, in %, no unit attached.

-- ask Consider the compound CC(C)[C@H](NC(=O)[C@H](C)NC(=O)[C@@H](NC(=O)[C@H](Cc1ccccc1)NC(=O)/C=C/C(=O)NCC(=O)NCC(=O)N[C@@H](Cc1ccccc1)C(=O)O)C1CCCCC1)C(N)=O (HELM PEPTIDE1{[O=C(/C=C/C(=O)[*:2])NCC(=O)NCC(=O)N[C@@H](Cc1ccccc1)C(=O)O].F.[O=C([C@@H](N[*:1])C1CCCCC1)[*:2]].A.V.[am]}$$$$V2.0) and give its recorded inhibition.
-- reply 48

-- ask Consider the compound CC(=O)NC[C@H](NC(=O)/C=C/C(=O)NCC(=O)NCC(=O)N[C@@H](Cc1ccccc1)C(=O)O)C(=O)N[C@@H](CC(C)C)C(=O)N[C@@H](C)C(=O)N[C@H](C(N)=O)C(C)C (HELM PEPTIDE1{[O=C(/C=C/C(=O)[*:2])NCC(=O)NCC(=O)N[C@@H](Cc1ccccc1)C(=O)O].[O=C([C@H](CN[*:3])N[*:1])[*:2]].L.A.V.[am]}|PEPTIDE2{[ac]}$PEPTIDE1,PEPTIDE2,2:R3-1:R2$$$V2.0) and give its recorded inhibition.
-- reply 32

-- ask Consider the compound CC(C)[C@H](NC(=O)[C@@H](NC(=O)[C@@H](NC(=O)[C@H](C)NC(=O)/C=C/C(=O)NCC(=O)NCC(=O)N[C@@H](Cc1ccccc1)C(=O)O)c1ccccc1)C(C)C)C(N)=O (HELM PEPTIDE1{[O=C(/C=C/C(=O)[*:2])NCC(=O)NCC(=O)N[C@@H](Cc1ccccc1)C(=O)O].A.[Phg].V.V.[am]}$$$$V2.0) and give its recorded inhibition.
-- reply 36
